Recorded composite z-score, one value per entry.
Test: small molecules captured by biotinylated probe aFSTL3 – biochemical, small-molecule microarray, fluorescence 635/667, stem cell growth factor project, primary screen (AID 1064);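 note: measures binding of the biotinylated anti-FSTL3 antibody to printed compounds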
Settings: higher = more signal

Please review the following examples before continuing.
Which value of composite z-score has been reported for `C=C(CCCC)/C(=C/C[C@H](OC(C)=O)c1ccc(CO)o1)c1cc(C(=O)OC)ccc1OC` in the records?
-0.509

And the next one, `[N-]=[N+]=Nc1ccccc1[C@@H]1OC(c2ccc(OCCCO)cc2)=N[C@]1(CCS(=O)(=O)c1ccccc1)C(=O)N1CCCCC1` ?
1.78

And the next one, `COc1ccc(C#Cc2ccc3c(c2)[C@]2(C(=O)N3)[C@H](C(=O)N3CCN(c4ncccn4)CC3)[C@H]3C(=O)O[C@H](c4ccccc4)[C@H](c4ccccc4)N3[C@@H]2c2ccc(O)cc2)cc1` ?
-0.092

Continuing:
Which value of composite z-score has been reported for COc1cc2c(cc1O)C(c1ccc(CN3CCCC3)cc1)N(Cc1sc3ccccc3c1Cl)CC2 (centres undefined) in the records?
0.719

And the next one, C=CCC(OC(C)=O)[C@@H]1[C@@H](N(Cc2ccc(-c3ccccc3)cc2)C(=O)c2ccc(C)cc2)c2cc(OCCCO)ccc2N1C(=O)Cc1ccc(OC)cc1 (some centres undefined) ?
-0.0305

And the next one, `[N-]=[N+]=NCc1ccccc1C[C@]1(C(N)=O)N=C(c2ccc(OCCCO)cc2)O[C@H]1c1ccccc1N=[N+]=[N-]` ?
0.567

----------
Recorded composite z-score, one value per entry.
Test: probe aInhba binding on compound microarray – biochemical, small-molecule microarray, 635/667 nm fluorescence, primary screen (AID 1148);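 note: score merges 667nm spot fluorescence with signal-to-noise for antibody binding to printed compounds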
Details: higher = more signal
Please reply with the value in numeric form only.

Please review the following examples before continuing.
Which value of composite z-score has been reported for `CC(C)N1C(=O)c2ccccc2[C@](C)(C(=O)NC2CC2)[C@@H]1c1ccc(CO)cc1` in the records?
-0.2

And the next one, `C=C(CCCC)C(=O)CC[C@H](OC(C)=O)c1ccc(CO)o1` ?
-0.0427

And the next one, `Cc1ccc(S[C@]2(C(=O)NCCCN(C)C)CC(=O)N(C(C)C)[C@@H]2c2ccc(CO)cc2I)cc1` ?
-0.0986

Continuing:
Which value of composite z-score has been reported for `COc1cc(CO)cc(I)c1O[C@H]1C=C(C(=O)NCCO)C[C@@H](N(CCc2cccc(F)c2)C(=O)CCC2CCCC2)[C@@H]1O` in the records?
0.0872

And the next one, `COc1ccc([Si](C)(C)[C@H]2[C@H](CC(=O)N3CCC[C@H]3CO)O[C@@]3(C(=O)N(Cc4cccc(N5CCC5=O)c4)c4ccccc43)[C@@H]2C)cc1` ?
-0.0132

And the next one, `COCCOC(=O)N1C(=O)[C@@]2(c3cc(C#CC4=CCCCC4)ccc31)[C@H](c1ccc(OCCO)cc1)N1[C@H](c3ccccc3)[C@H](c3ccccc3)OC(=O)[C@H]1[C@@H]2C(=O)Nc1nc2ccccc2s1` ?
-0.0178

And the next one, CC(=O)n1cc(C(O)C2C=CC3C(=O)N(c4ccccc4)C(=O)C3N2Nc2ccc(C#N)cc2)c2ccccc21 (centres undefined) ?
0.11

And the next one, `CC(C)CNC(=O)[C@@]1(C)c2ccccc2C(=O)N(C(C)C)[C@H]1c1ccc(CO)cc1` ?
-0.187

And the next one, `C=CCN1Cc2ccccc2C[C@]2(N=C(c3ccc(OCCCO)cc3)O[C@@H]2c2ccccc2)C1=O` ?
0.167

And the next one, O=C1C2C=CC(C(O)CCc3ccccc3)N(Nc3ccccc3)C2C(=O)N1c1ccccc1 (centres undefined) ?
0.372

And the next one, `NC(=O)NCC#Cc1ccc2c(c1)[C@]1(C(=O)N2)[C@H](c2ccccc2OCCO)N2[C@H](c3ccccc3)[C@H](c3ccccc3)OC(=O)[C@H]2[C@@H]1C(=O)N1CCCCCCC1` ?
1.88

And the next one, `CO[C@H]1O[C@H](CO)[C@@H](OC(=O)Nc2ccc(C(F)(F)F)cc2)[C@H](OC(=O)Nc2ccccc2)[C@@H]1OC(=O)Nc1ccccc1` ?
-0.0538

And the next one, CCOC(=O)N1C(c2ccc(OCCCO)cc2)=NC(C(=O)OC)N1C(=O)OCC (centres undefined) ?
0.0614

And the next one, CC(c1ccccc1)C(O)C1C=CC2C(=O)N(c3ccccc3)C(=O)C2N1Nc1ccccc1F (centres undefined) ?
-0.125

And the next one, `COc1ccc([Si](C)(C)[C@H]2[C@H](CCO)O[C@@]3(C(=O)N(Cc4cccc(N5C(=O)c6cccc7cccc5c67)c4)c4ccccc43)[C@@H]2C)cc1` ?
-0.176

And the next one, `COCCOC(=O)N1C(=O)[C@@]2(c3ccccc31)[C@H](c1ccc(O)cc1)N1[C@H](c3ccccc3)[C@H](c3ccccc3)OC(=O)[C@H]1[C@@H]2C(N)=O` ?
-0.128

And the next one, `C=C(CCCC)C(=O)CC[C@H](OC(=O)c1ccccc1-c1ccccc1C(=O)O)c1ccc(CO)o1` ?
0.0154

And the next one, COc1cc(NN2C(C(O)c3ccccc3)C=CC3C(=O)N(c4ccccc4)C(=O)C32)cc(OC)c1OC (centres undefined) ?
0.0829

And the next one, `C=C(COC)/C(=C/C[C@H](OC(C)=O)c1ccccc1OCCO)c1cnc2ccccc2c1` ?
0.0183

----------
Recorded composite z-score, one value per entry.
Tested on: Neuregulin-1 EGF-like domain
Assay: small molecules binding NRG1 EGF domain – biochemical, small-molecule microarray, 635 nm fluorescence, primary screen (AID 1081);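 note: binding of the protein to compounds printed on small-molecule microarray slides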
Settings: higher = more signal

# value lookup — system Neuregulin-1 EGF-like domain, readout composite z-score, item `COC(=O)[C@@]1(Cc2ccc(OC)cc2)[C@H]2c3cc(C(=O)N4CCCC4)n(C[C@H](O)CO)c3C[C@H]2CN1C(=O)c1ccccc1`
0.531

And the next one, `C=CCOC(=O)[C@@H]1[C@H]2C(=O)O[C@H](c3ccccc3)[C@H](c3ccccc3)N2[C@H](c2ccc(OCCOC(=O)[C@H]3C[C@H]4C(=O)N[C@@H](CC(C)C)C(=O)N4[C@H]3c3cccc(OCCO)c3)cc2)[C@@]12C(=O)Nc1ccc(I)cc12` ?
1.27

Continuing:
# value lookup — system Neuregulin-1 EGF-like domain, readout composite z-score, item O=C1C2C=CC(C(O)c3ccc(B(O)O)cc3)N(Nc3ccc([N+](=O)[O-])cc3)C2C(=O)N1c1ccccc1 (stereo not drawn)
1.05

----------
Assay: JC-1 mitochondrial potential readout, lung cancer cells – cell-based, A549, JC-1 fluorescence, basal, 24 h, 100 nL, profiling panel (AID 1138);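 note: A549 lung adenocarcinoma cells under basal conditions with no added stimulus; test concentration not given here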
Settings: higher = more signal
Recorded z-score, one value per entry.
Please reply with the value in numeric form only.

Please review the following examples before continuing.
Which value of z-score has been reported for `COc1ccc([Si](C)(C)[C@H]2[C@H](CC(=O)N3Cc4ccccc4C[C@H]3CO)O[C@@]3(C(=O)N(Cc4cccc(I)c4)c4ccccc43)[C@@H]2C)cc1` in the records?
-0.0488

And the next one, CC(C)(C)OC(=O)CC[C@@]1(C(=O)NCC(O)CO)N=C(c2ccc(OCCCO)cc2)O[C@@H]1c1ccccc1 (stereo partly drawn) ?
0.477

And the next one, CC1(C)C(=O)C(c2ccccc2)=C2CN3C(=O)N(CCc4ccccc4)C(=O)C3(Cc3ccccc3)C=C21 (stereo not drawn) ?
0.19

And the next one, Cn1c2c(c3ccccc31)C(=O)C1NC2C=CC1(C)C(=O)OCc1ccccc1 (stereo not drawn) ?
-0.591

And the next one, `CCCC[C@@H]1C[C@H]1[C@@H](NC(=O)c1ccccc1)c1ccccc1` ?
-1.03

Continuing:
Which value of z-score has been reported for O=C1C2C=CC(C(O)c3cccc4ccccc34)N(n3cnnc3)C2C(=O)N1Cc1ccccc1 (stereo not drawn) in the records?
-0.94

And the next one, `CC(=O)N1Cc2ccccc2C[C@@]2(N=C(c3ccc(OCCCO)cc3)O[C@H]2c2ccccc2)C1=O` ?
0.592

And the next one, `O=C1O[C@@H](c2ccccc2)[C@@H](c2ccccc2)N2[C@@H](c3ccc(O)cc3)[C@]3(C(=O)Nc4ccc(C#CCCO)cc43)[C@@H](C(=O)N3CCCCCCC3)[C@H]12` ?
-0.158

----------
Experiment: probe aInhba binding on compound microarray – biochemical, small-molecule microarray, 635/667 nm fluorescence, primary screen (AID 1148);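 note: score merges 667nm spot fluorescence with signal-to-noise for antibody binding to printed compounds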
Details: higher = more signal
Mark false for composite z-score values under 0.06, and true for everything at or above.

# bool: composite z-score of `O=C1C[C@@](C(=O)O)(c2ccc([N+](=O)[O-])cc2)[C@@H](c2ccc(CO)cc2I)N1C1CCCCC1` >= 0.06
true

And the next one, `CN(C)CCCN1C(=O)[C@@]2(c3ccc([N+](=O)[O-])cc3)CC(=O)N(C3CCCCC3)[C@@H]2c2ccc(CO)cc21` ?
false

And the next one, `CC(=O)N1Cc2ccccc2C[C@@]2(N=C(c3ccc(OCCCO)cc3)O[C@H]2c2ccccc2)C1=O` ?
true

And the next one, `C=C(C(=O)CC[C@H](OC(=O)c1cccnc1)c1ccccc1OCCO)C(C)C` ?
false

And the next one, `CCOC(=O)C1=CC[C@@H](c2cccc(Cl)c2)N(S(=O)(=O)c2ccc(C)cc2)[C@H]1c1ccc(C#N)cc1` ?
true

And the next one, `COCCOC(=O)N1C(=O)[C@@]2(c3cc(C#CCCO)ccc31)[C@H](C(=O)NC[C@H](O)c1ccccc1)[C@H]1C(=O)O[C@H](c3ccccc3)[C@H](c3ccccc3)N1[C@@H]2c1ccc(OCCO)cc1` ?
false

Continuing:
# bool: composite z-score of `COC(=O)[C@@]1(Cc2ccc(OC)cc2)[C@H]2c3cc(C(=O)N4CCCC4)n(C[C@H](O)CO)c3C[C@H]2CN1C(=O)c1ccccc1` >= 0.06
false
